study.target: 5-HT2BR (Homo sapiens, UniProt P41595)
Construct: expressed in transfected cells; host or cells: Flp-In 293 T-Rex (tetracycline inducible)
Sequence (P41595 whole entry): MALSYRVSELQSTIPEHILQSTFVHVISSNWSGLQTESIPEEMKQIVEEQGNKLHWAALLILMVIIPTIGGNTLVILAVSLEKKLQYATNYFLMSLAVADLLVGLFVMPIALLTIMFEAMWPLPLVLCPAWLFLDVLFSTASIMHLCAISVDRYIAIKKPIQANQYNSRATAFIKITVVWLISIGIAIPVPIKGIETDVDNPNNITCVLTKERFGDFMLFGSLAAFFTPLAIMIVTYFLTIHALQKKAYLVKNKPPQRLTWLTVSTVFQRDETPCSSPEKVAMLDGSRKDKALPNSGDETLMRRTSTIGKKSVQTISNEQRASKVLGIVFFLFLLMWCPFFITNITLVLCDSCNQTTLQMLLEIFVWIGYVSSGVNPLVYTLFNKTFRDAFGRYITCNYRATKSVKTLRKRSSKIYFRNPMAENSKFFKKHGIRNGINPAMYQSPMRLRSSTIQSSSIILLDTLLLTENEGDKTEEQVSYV
assay.procedure: Calcium flux assay (FLIPR, Fluo-4), 5-HT2BR stable cell line
Format: cell-based
condition.info: bracketed value below EC50, read-out: 5-HT2BR pEC50 ± S.E.M (converted)
Protocol: Stable cell lines for 5-HT2AR, 5-HT2BR and 5-HT2CR generated using the Flp-In 293 T-Rex Tetracycline inducible system (Invitrogen). […] After dye loading, cells were placed in a FLIPR^TETRA fluorescence imaging plate reader (Molecular Dynamics). […] The fluidics module and plate reader of the FLIPR^TETRA were programmed to read baseline fluorescence for 10s (1 read/s), then 10 ul of drug/well was added and read for 5 min (1 read/s). […]
measure: EC50

>>> print(df.to_string())
                                   compound  measure  observed_measurement
0  Cc1cncc(C2=C[C@H](C)CN(CC3(O)COC3)C2)c1 (stereo in doubt)     EC50                115 nM
1       CCCCCN1CC(c2cncc(Cl)c2)=C[C@H](C)C1     EC50               24.5 nM
2  C[C@@H]1C=C(c2cncc(Cl)c2)CN(C)C1 (stereo in doubt)     EC50               26.9 nM
3        CCCN1CC(c2cncc(Cl)c2)=C[C@@H](C)C1     EC50                123 nM
4        CCCCN1CC(c2cncc(Cl)c2)=C[C@H](C)C1     EC50               22.9 nM

FYI, the data here is from patent US20230365542A1.
